# testProtocol: Binding affinity of Opioid receptor delta 1 by the displacement of delta-selective [3H]DSLET from brain membrane preparations.
Where a SMILES comes first, the peptide text is derived from it. Side-chain parts run from the residue outwards. The star is where a group is joined. X1 = CN1CC[C@]23c4c5ccc(O)c4O[C@H]2[C@@H](N*)CC[C@@]3(O)C1C5
Could you please report measured Ki for the items listed next?
Respond with the bare value in nM.

Please look up its Ki: CC(=O)N[C@H]1CC[C@@]2(O)C3Cc4ccc(O)c5c4[C@@]2(CCN3C)[C@H]1O5
163

Please look up its Ki: CC(C)C[C@H](NC(=O)[C@H](Cc1ccccc1)NC(=O)CNC(=O)[C@H](CCC(=O)NCC(=O)NCC(=O)N[C@H]1CC[C@@]2(O)C3Cc4ccc(O)c5c4[C@@]2(CCN3C)[C@H]1O5)NC(=O)[C@@H](N)Cc1ccc(O)cc1)C(=O)O (H-YE([Gly-Gly-X1])GFL-OH)
51

Please look up its Ki: CC(C)C[C@H](NC(=O)[C@H](Cc1ccccc1)NC(=O)CNC(=O)[C@H](CCC(=O)N[C@H]1CC[C@@]2(O)C3Cc4ccc(O)c5c4[C@@]2(CCN3C)[C@H]1O5)NC(=O)[C@@H](N)Cc1ccc(O)cc1)C(=O)O (H-YE(X1)GFL-OH)
26

Please look up its Ki: CC(C)C[C@H](NC(=O)[C@H](Cc1ccccc1)NC(=O)CNC(=O)[C@H](CCC(=O)NCC(=O)NCC(N)=O)NC(=O)[C@@H](N)Cc1ccc(O)cc1)C(=O)O (H-YE([Gly-Gly-NH2])GFL-OH)
88

Please look up its Ki: CC(=O)NCC(=O)NCC(=O)N[C@H]1CC[C@@]2(O)C3Cc4ccc(O)c5c4[C@@]2(CCN3C)[C@H]1O5
181
